B1: library; numbered along this chain (parent)
chain: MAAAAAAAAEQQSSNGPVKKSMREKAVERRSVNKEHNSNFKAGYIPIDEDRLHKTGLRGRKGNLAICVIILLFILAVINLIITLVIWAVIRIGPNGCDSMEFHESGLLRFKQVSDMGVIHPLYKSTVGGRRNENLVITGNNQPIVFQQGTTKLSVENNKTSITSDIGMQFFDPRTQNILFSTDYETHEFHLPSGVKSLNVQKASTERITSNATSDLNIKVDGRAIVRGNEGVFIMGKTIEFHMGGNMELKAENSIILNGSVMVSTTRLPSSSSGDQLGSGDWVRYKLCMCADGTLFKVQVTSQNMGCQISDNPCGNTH

- Variants of: B1
- assay text: SGCB cell-surface expression functional score (HA stain, bin4 vs bin1, normalised to synonymous) (log10 ratio); higher = more cell-surface SGCB (functional)
assay readout: SGCB cell-surface expression functional score (log10)

- mutation name: "G167L"
  result: -0.9
- mutation name: "L107K"
  result: -0.53
- mutation name: "V261F"
  result: -1.31
- mutation name: "L198N"
  result: -1.95
- mutation name: "V18T"
  result: 0.24
- mutation name: "L72H"
  result: -0.05
- mutation name: "T205N"
  result: -1.69
- mutation name: "L71E"
  result: 0.1
- mutation name: "W282K"
  result: -0.08
- mutation name: "G231R"
  result: 0.27
- mutation name: "G62H"
  result: 0.18
- mutation name: "E188V"
  result: -0.11
- mutation name: "D275V"
  result: 0.12
- mutation name: "F170D"
  result: -1.87
- mutation name: "K152Y"
  result: -0.59
- mutation name: "G128S"
  result: 0.07
- mutation name: "Q11N"
  result: 0.3
- mutation name: "V127E"
  result: -0.65
- mutation name: "G62A"
  result: 0.02
- mutation name: "D98F"
  result: -0.64
- mutation name: "N253A"
  result: 0.49
- mutation name: "G128M"
  result: 0.04
- mutation name: "S270F"
  result: 1.1
- mutation name: "I208M"
  result: -0.33
- mutation name: "G259I"
  result: 0.63
- mutation name: "R29T"
  result: -0.04
- mutation name: "C288Y"
  result: -0.01
- mutation name: "N79K"
  result: -0.4
- mutation name: "L84T"
  result: 0.17
- mutation name: "P17D"
  result: 0.27
- mutation name: "Q11R"
  result: 0.14
- mutation name: "A4E"
  result: -0.43
- mutation name: "Q148A"
  result: 0.12
- mutation name: "S214V"
  result: -0.18
- mutation name: "M247N"
  result: -0.35
- mutation name: "C307D"
  result: 0.04
- mutation name: "N15Q"
  result: 0.32
- mutation name: "N95T"
  result: -0.1
- mutation name: "S273L"
  result: -0.2
- mutation name: "G93M"
  result: -1.49
- mutation name: "C290V"
  result: -0.97
- mutation name: "V232C"
  result: 0.7
- mutation name: "S260T"
  result: 0.41
- mutation name: "F241R"
  result: -1.19
- mutation name: "G231N"
  result: -0.19
- mutation name: "E240T"
  result: 1
- mutation name: "G244T"
  result: 0.66
- mutation name: "E28G"
  result: -0.33
- mutation name: "E101L"
  result: -0.35
- mutation name: "L179F"
  result: 0.08
- mutation name: "L216Y"
  result: -1.59
- mutation name: "I81S"
  result: -0.14
- mutation name: "Q112D"
  result: -0.16
- mutation name: "P269A"
  result: -0.23
- mutation name: "I178Q"
  result: -0.75
- mutation name: "F73G"
  result: 0.22
- mutation name: "V85R"
  result: -0.06

Reference source: the supplement of paper PMC10266784
